Hello, the source for this data is ChEMBL document CHEMBL4680220, in case you need it.

# measured target: Histone deacetylase 4 (Homo sapiens)
# Sequence (P56524 whole entry, the tested form may be a part): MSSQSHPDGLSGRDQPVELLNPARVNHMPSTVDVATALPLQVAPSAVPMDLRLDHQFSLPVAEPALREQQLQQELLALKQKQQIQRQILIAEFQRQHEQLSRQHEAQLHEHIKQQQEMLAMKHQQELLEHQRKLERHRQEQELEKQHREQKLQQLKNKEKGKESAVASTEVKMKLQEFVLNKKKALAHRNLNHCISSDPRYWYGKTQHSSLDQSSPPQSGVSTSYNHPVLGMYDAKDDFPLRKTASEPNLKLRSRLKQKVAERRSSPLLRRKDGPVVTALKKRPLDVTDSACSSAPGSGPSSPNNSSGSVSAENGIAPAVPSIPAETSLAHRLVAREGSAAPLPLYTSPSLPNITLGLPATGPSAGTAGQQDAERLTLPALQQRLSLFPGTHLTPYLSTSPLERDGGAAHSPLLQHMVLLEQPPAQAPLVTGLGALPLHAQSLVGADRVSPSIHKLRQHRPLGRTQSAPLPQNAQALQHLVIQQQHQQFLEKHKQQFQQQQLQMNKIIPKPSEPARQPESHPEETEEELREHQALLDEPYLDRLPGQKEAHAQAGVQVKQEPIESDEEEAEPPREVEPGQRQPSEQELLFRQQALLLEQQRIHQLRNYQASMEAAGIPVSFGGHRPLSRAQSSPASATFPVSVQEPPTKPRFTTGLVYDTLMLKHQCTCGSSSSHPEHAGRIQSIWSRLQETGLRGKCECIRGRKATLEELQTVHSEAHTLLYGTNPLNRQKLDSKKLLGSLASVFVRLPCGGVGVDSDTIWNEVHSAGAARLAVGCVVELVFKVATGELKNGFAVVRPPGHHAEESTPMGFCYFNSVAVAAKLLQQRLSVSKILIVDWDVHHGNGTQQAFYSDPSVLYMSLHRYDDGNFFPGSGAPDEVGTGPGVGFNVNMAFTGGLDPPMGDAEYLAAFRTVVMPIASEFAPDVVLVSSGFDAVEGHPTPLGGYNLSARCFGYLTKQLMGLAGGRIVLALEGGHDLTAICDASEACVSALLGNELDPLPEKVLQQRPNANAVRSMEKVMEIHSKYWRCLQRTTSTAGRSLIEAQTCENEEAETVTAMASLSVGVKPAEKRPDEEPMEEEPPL
# measurement description: Inhibition of recombinant human N-terminal GST-tagged/C-terminal His-tagged HDAC4 (627 to 1084 residues) expressed in baculovirus expression system using Boc-Lys(TFA)-AMC as substrate preincubated for 5 mins followed by substrate addition and measured after 30 mins by fluorescence assay
pIC50: −log10 of the molar value.
readout label: pIC50

For orientation, consider the following solved cases.
{"line notation": "O=C(NO)c1ccc(Nc2c3c(nc4ccccc24)CCCC3)cc1", "readout label": "pIC50", "assay value": "< 4.40"}
{"line notation": "COc1ccc2nc3cc(Cl)ccc3c(Nc3ccc(C(=O)NO)cc3)c2n1", "readout label": "pIC50", "assay value": "< 4.40"}

Which measured pIC50 value corresponds to O=C(NO)c1ccc(Nc2ccnc3ccccc23)cc1 ? < 4.40

----------
# measured target: Histone deacetylase 5 (Homo sapiens, UniProt Q9UQL6)
# Sequence (Q9UQL6 whole entry, the tested form may be a part): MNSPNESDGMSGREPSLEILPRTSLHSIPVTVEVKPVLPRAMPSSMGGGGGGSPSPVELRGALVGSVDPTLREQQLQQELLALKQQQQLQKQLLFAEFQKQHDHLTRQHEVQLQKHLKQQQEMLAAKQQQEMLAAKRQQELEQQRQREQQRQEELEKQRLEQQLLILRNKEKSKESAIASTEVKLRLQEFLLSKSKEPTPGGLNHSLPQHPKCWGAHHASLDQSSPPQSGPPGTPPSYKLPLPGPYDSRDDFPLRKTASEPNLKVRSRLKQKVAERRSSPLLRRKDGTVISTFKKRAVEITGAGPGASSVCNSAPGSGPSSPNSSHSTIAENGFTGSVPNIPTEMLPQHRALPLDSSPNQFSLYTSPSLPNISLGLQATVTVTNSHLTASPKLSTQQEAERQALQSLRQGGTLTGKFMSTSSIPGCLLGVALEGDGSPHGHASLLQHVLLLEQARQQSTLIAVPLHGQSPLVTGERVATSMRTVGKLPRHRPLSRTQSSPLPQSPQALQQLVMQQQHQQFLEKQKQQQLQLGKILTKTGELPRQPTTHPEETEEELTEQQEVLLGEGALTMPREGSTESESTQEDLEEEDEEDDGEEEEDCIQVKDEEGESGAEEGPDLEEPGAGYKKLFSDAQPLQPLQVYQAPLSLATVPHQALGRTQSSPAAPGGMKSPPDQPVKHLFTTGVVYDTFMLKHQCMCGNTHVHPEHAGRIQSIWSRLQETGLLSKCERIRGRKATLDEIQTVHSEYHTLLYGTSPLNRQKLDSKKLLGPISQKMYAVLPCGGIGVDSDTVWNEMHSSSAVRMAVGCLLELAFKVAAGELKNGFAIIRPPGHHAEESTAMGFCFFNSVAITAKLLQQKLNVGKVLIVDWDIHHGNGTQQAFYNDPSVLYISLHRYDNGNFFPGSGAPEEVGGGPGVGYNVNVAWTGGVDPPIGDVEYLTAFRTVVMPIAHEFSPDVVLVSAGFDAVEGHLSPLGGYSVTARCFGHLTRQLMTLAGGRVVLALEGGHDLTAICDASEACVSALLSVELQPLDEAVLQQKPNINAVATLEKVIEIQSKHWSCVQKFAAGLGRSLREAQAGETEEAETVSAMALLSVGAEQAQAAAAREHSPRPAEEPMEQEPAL
# measurement description: Inhibition of recombinant human C-terminal His-tagged HDAC5 (656 to 1122 residues) expressed in baculovirus infected Sf9 insect cells using fluorogenic HDAC 2A substrate preincubated for 5 mins followed by substrate addition and measured after 30 mins by fluorescence assay
pIC50: −log10 of the molar value.
We use 6 as the dividing line for pIC50: on or above the line is MET, below is NOT MET.

Past entries and their recorded results:
{"line notation": "O=C(Cc1ccc(Nc2c3ccccc3nc3ccccc23)cc1)NO", "measured target": "Histone deacetylase 5 (Homo sapiens, UniProt Q9UQL6)", "label class": "NOT MET"}
{"line notation": "O=C(NO)c1ccc(Nc2c3ccccc3nc3ccc(OCc4ccccc4)cc23)cc1", "measured target": "Histone deacetylase 5 (Homo sapiens, UniProt Q9UQL6)", "label class": "MET"}

Determine whether measured pIC50 meets or exceeds 6 for O=C(NO)c1ccc(Nc2c3ccccc3nc3ccc(Br)cc23)cc1 NOT MET

Field entry: O=C(NO)c1cccc(Nc2c3ccccc3nc3ccccc23)c1 NOT MET

Note, next up: COc1ccc2nc3cc(Cl)ccc3c(Nc3ccc(C(=O)NO)cc3)c2n1 NOT MET
